system: HIV-1 E138K; assay: microbe, parasite or virus in culture; type: cell-based; details: selectivity index, ratio of CC50/EC50
Property label: SI E138K
Output spec: single numeric token, no unit.

Some compounds with known SI E138K results, for comparison:
Cc1cc(/C=C/C#N)cc(C)c1Oc1nc(Nc2ccc(C#N)cc2)nc2c1SCCC2 [15b]: 225
Cc1cc(/C=C/C#N)cc(C)c1Oc1nc(NC2CCN(Cc3ccc(S(N)(=O)=O)cc3)CC2)nc2c1SCCC2 [compound 23h]: 155
Cc1cc(C#N)cc(C)c1Oc1nc(Nc2ccc(C#N)cc2)nc2c1SCCC2 [compound 15a]: 260
Cc1cc(C#N)cc(C)c1Oc1nc(NC2CCN(Cc3ccc(N)cc3)CC2)nc2c1SCCC2 [23f]: 556
Cc1cc(C#N)cc(C)c1Oc1nc(Nc2ccc(C#N)cc2)nc2c1S(=O)(=O)CCC2 [compound 16b]: 1716

// Cc1cc(C#N)cc(C)c1Oc1nc(NC2CCN(c3cccc(C(N)=O)c3)CC2)nc2c1SCCC2 [27b] : SI E138K value = 350
